System Tested: T1, HLA-A*0201 on the CEM.T2 cell line (T2) (human)
T1 construct: whole, on cells
Measurement Notes: T2 cell dissociation assay with Brefeldin A, flow cytometry
Reported CEM.T2 % Residual Binding by item:

[
  {
    "Binder": "GTSDVVTVV (Synthetic nonapeptide of human nectin4; the range counts on nectin4) [Nectin4 peptide 35 (GTSDVVTVV)]",
    "U": "%",
    "CEM.T2 % Residual Binding": 0
  },
  {
    "Binder": "FQARLRLRV (Synthetic nonapeptide of human nectin4; the range counts on nectin4) [Nectin4 peptide 137 (FQARLRLRV)]",
    "U": "%",
    "CEM.T2 % Residual Binding": 72
  },
  {
    "Binder": "HILHVSFLA (Synthetic nonapeptide of human nectin4; the number is the start position in nectin4 (the range counts on nectin4)) [Nectin4 peptide 238 (HILHVSFLA)]",
    "U": "%",
    "CEM.T2 % Residual Binding": 66
  },
  {
    "Binder": "LLLLASFTG (Synthetic nonapeptide of human nectin4; the range counts on nectin4) [Nectin4 peptide 19 (LLLLASFTG)]",
    "U": "%",
    "CEM.T2 % Residual Binding": 0
  }
]
